Tgt: human 4-1BB on cells (human, UniProt Q07011 24-255)
Sequence (Q07011 24-255): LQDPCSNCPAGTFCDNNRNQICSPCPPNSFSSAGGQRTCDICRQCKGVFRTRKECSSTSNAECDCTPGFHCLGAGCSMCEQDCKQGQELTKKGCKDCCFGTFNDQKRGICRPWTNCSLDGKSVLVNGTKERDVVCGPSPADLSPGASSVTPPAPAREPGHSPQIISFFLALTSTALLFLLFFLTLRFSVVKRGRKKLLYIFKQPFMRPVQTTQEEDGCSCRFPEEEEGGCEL
Experimental protocol: cell-based or functional assay
Parameter: NF-KB reporter activation, curve fit Top. Scope: all listed entries.
Experimental endpoint: NF-KB reporter activation, curve fit Top

INSERT INTO measurements (binder, experimental_endpoint, recorded_value) VALUES
  ('huF1.1.G2.2.4 (antibody, human IgG2, kappa, V domains shown, also called huF1.1.2.4) VH: QVQLVQSGAEVKKPGASVKVSCKASGYTFTFYTMHWLRQAPGQGLEWIGYINPSSGYTNYNQKFTDRATLTADTSTSTAYMELSSLRSEDTAVYYCARSDGSSSKWYFDVWGQGTTVTVSS VL: EIVLTQSPDFQSATPKEKVTITCRASSSVSYIHWYQQKPGSSPKAWISATSNLASGVPSRFSGSGSGTSYTLTINRVEAEDAATYYCQQWSSNPFTFGQGTKLEIKR', 'NF-KB reporter activation, curve fit Top', '7190 RLU'),
  ('huG28.21.G2.1.4 (antibody, human IgG2, kappa, V domains shown, also called huG28.21.1.4) VH: EVQLVQSGAEVKKPGATVKISCKASGFNIKDYYIHWVNQAPGKGLEWIGRIDPEDGDIAYAPKFQDRVTLTVDTSTDTAYLELSSLRSEDTAVYYCTTGNYYAMDFWGQGTTVTVSS VL: QIVLTQSPATLSASPGERVTLSCTASSSVSSSYLHWYQQKPGSSPKLWIYSTSNLASGVPARFSGSGPGTSYTLTISSMEPEDAATYYCHQYHRSPPTFGQGTKLEIKR', 'NF-KB reporter activation, curve fit Top', '4170 RLU'),
  ('huG28.21.G2.4.4 (antibody, human IgG2, kappa, V domains shown, also called huG28.21.4.4) VH: EVQLQQSGAEVKKPGATVKLSCKASGFNIKDYYIHWVNQRPGQGLEWIGRIDPEDGDIAYAPKFQDRATLTVDTSTNTAYLELSSLRSEDTAVYYCTTGNYYAMDFWGQGTTVTVSS VL: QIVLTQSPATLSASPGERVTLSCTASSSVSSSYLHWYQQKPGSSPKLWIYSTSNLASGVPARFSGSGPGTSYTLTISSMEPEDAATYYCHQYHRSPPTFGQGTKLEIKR', 'NF-KB reporter activation, curve fit Top', '3920 RLU'),
  ('cAb 137QL.F1.1.G2 (antibody, human IgG2, V domains shown, Chimeric antibody; also called Chimeric F1.1; cAb F1.1.G2) VH: QVQLQQSGAELARPGASVKMSCKASGYTFTFYTMHWLKQRPGQGLEWIGYINPSSGYTNYNQKFTDKATLTADKSSSTAYMQLSSLTSEDSAVYYCARSDGSSSKWYFDVWGTGTTVTVSS VL: QIVLSQSPTILSASPGEKVTMTCRASSSVSYIHWYQQKPGSSPKAWISATSNLASGVPARFSGSGSGTSYSLTISRVEAEDAATYYCQQWSSNPFTFGSGTKLEIK', 'NF-KB reporter activation, curve fit Top', '6730 RLU'),
  ('huF1.1.G2.4.4 (antibody, human IgG2, kappa, V domains shown, also called huF1.1.4.4) VH: QVQLVQSGAEVKKPGASVKMSCKASGYTFTFYTMHWLKQAPGQGLEWIGYINPSSGYTNYNQKFTDRATLTADKSTSTAYMELSSLRSEDTAVYYCARSDGSSSKWYFDVWGQGTTVTVSS VL: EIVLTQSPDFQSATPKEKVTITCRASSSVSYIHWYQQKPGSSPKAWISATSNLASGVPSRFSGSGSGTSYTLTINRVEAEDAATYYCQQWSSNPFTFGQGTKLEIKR', 'NF-KB reporter activation, curve fit Top', '5940 RLU'),
  ('cAB 137QL.G28.21.G2 (antibody, human IgG2, V domains shown, Chimeric antibody; also called Chimeric G28.21; cAb G28.21.G2) VH: EVQLQQSGAELVRPGASVKLSCTASGFNIKDYYIHWVNQRPEQGLEWIGRIDPEDGDIAYAPKFQDKATLTVDTSSNTAYLHIIGLTSEDTAVYYCTTGNYYAMDFWGQGTSVTVSS VL: QIVLTQSPAIMSASLGERVTMTCTASSSVSSSYLHWYQQKPGSSPKLWIYSTSNLASGVPARFSGSGSGTSYSLTISSMEAEDAATYYCHQYHRSPPTFGSGTKLEIK', 'NF-KB reporter activation, curve fit Top', '4590 RLU');

This collection of values is drawn from patent US20220064314A1.
